The following molecules are shown together with reported Ki values.
Target: Mitogen-activated protein kinase kinase kinase 12 (Homo sapiens, UniProt Q12852)
Sequence (Q12852 whole entry): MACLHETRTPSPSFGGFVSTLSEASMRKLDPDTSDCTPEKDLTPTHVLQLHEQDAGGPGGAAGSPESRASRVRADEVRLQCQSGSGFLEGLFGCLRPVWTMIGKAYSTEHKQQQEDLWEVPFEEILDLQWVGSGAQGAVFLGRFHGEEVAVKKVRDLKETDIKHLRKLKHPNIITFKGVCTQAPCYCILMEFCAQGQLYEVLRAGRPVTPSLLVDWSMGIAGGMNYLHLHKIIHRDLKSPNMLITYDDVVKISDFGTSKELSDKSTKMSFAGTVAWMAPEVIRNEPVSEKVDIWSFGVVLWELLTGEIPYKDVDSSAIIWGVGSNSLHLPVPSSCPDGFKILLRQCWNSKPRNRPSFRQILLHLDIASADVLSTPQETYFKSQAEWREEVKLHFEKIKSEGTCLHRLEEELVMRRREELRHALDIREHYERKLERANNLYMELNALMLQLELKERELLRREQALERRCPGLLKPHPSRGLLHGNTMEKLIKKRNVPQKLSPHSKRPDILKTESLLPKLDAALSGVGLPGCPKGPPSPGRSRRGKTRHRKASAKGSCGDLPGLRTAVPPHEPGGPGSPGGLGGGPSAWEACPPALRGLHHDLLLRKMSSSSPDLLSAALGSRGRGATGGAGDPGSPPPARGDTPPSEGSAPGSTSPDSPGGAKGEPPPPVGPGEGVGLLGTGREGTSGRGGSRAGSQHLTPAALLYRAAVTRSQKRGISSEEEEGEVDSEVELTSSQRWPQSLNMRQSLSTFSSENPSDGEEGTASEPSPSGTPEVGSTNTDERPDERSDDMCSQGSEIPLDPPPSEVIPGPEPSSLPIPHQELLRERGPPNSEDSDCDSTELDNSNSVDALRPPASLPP
Assay: DLK TR-FRET Inhibition Assay: DLK kinase reactions (20 μL) containing 5 nM N-terminally GST-tagged DLK (catalytic domain amino acid 1-520) (Carna Bioscience), 40 nM N-terminally HIS tagged MKK4 K131M substrate, and 30 μM ATP in kinase reaction buffer (50 mM HEPES, pH 7.5, 0.01% Triton X-100, 0.01% Bovine γ-Globulins, 2 mM DTT, 10 mM MgCl2 and 1 mM EGTA), and testing compound 1:3 serial diluted starting at 20 uM were incubated at ambient temperature for 60 minutes in 384 well OptiPlate (Perkin Elmer). To quench kinase reactions and detect phosphorylated MKK4, 15 μL of TR-FRET antibody mixture containing 2 nM anti-phosphorylated MKK4 labeled with Europium cryptate (Cisbio) and 23 nM anti-HIS labeled with D2 (Cisbio) in detection buffer (25 mM Tris pH 7.5, 100 mM NaCl, 100 mM EDTA, 0.01% Tween-20, and 200 mM KF) was added to the reaction mixture. The detection mixture was incubated for 3 hours at ambient temperature and the TR-FRET was detected with an EnVision multilabel plate reader (Perkin-Elmer) using the LANCE/DELFIA Dual Enh label from Perkin-Elmer (excitation filter: UV2 (TRF) 320 and emission filters: APC 665 and Europium 615).
Dear colleague, please return just the value in nM, with no unit written.

CC(C)n1nccc1-c1nc(-c2cnc(N)nc2)nc2c1nc1n2CCOC1(C)C	1400
CC1(C)OCCn2c1nc1c(N3CC4COCC4C3)nc(-c3cnc(N)nc3)nc12 (centres undefined)	995
Cc1c[nH]c2ncc(-c3nc(N4CC5COCC5C4)c4nc5n(c4n3)CCOC5(C)C)cc12 (centres undefined)	46.3

Now turn to the next molecule.
Need Ki, item COC1C2CCC1N(c1nc(-c3cnc(N)nc3)nc3c1nc1n3CCOC1(C)C)C2 (centres undefined)
223
